system: K562; test: Growth inhibition of human K562 cells at 10 uM relative to control; type: functional; conditions: read-out: GI
Returns one of true or false; true when inhibition of growth at 10 µM is >= 10%.

As a guide, the following entries are already answered.
| Compound | Assayed System | Assigned Class |
| --- | --- | --- |
| CCOC(=O)Nc1ccc2c(=O)n(-c3ccccc3C)c(C)nc2c1 | K562 | false |
| Cc1ccccc1-n1c(C)nc2cc(NC(=O)c3ccc(Cl)cc3)ccc2c1=O | K562 | true |

[in] Test whether the compound Cc1ccccc1-n1c(C)nc2cc(N3C(=O)CSC3c3ccccc3)ccc2c1=O (stereo not drawn) records inhibition of growth at 10 µM of 10% or higher.
[out] true

[in] Test whether the compound `Cc1ccccc1-n1c(C)nc2cc(NC(=O)c3ccccc3)ccc2c1=O` records inhibition of growth at 10 µM of 10% or higher.
[out] false

[in] Test whether the compound `Cc1ccccc1-n1c(C)nc2cc(NC(=O)c3cccs3)ccc2c1=O` records inhibition of growth at 10 µM of 10% or higher.
[out] true

[in] Test whether the compound Cc1ccccc1-n1c(C)nc2cc(N3C(=O)CSC3c3ccc(Cl)cc3)ccc2c1=O (stereo not drawn) records inhibition of growth at 10 µM of 10% or higher.
[out] false
